value.kind: melting point

entry.smiles	melting point
CCCCNC(=O)/C=C/c1cc(OC)c(OC)c(OC)c1	225 to 226 °C
COC(=O)/C=C/c1cc(OC)c(OC)c(OC)c1	135 to 136 °C
COc1ccc(CNC(=O)/C=C/c2cc(OC)c(OC)c(OC)c2)cc1	225 to 226 °C
COc1cc(/C=C/C(=O)NCc2ccc(Cl)cc2)cc(OC)c1OC	215 to 218 °C
COc1cc(/C=C/C(=O)Oc2cc(C(C)C)ccc2C)cc(OC)c1OC	145 to 146 °C
CCN(CC)C(=O)/C=C/c1cc(OC)c(OC)c(OC)c1	197 to 198 °C

Would you mind listing melting point for each of the following compounds?
1. CCCCOC(=O)/C=C/c1cc(OC)c(OC)c(OC)c1
2. COCCOC(=O)/C=C/c1cc(OC)c(OC)c(OC)c1
3. CCCCCOC(=O)/C=C/c1cc(OC)c(OC)c(OC)c1
4. CCCCCCCCCCOC(=O)/C=C/c1cc(OC)c(OC)c(OC)c1
5. COc1cc(/C=C/C(=O)NCc2ccc(C)cc2)cc(OC)c1OC

A.
1: 74 to 75 °C; 2: 60 to 62 °C; 3: 105 to 106 °C; 4: 37 to 38 °C; 5: 203 to 205 °C

----------
system: U87MG cells; assay: MTT cell viability assay, cytotoxic activity against proliferation of U87MG cells; type: cell-based, human; details: Homo sapiens, U-87 MG, MTT assay, 48 h exposure, 0.78-50 μg/mL, mean ± SEM of four experiments
Can you tell me IC50 for the items I'm about to list?
Answers are plain numbers, in µg/mL.

These solved cases illustrate the format of a correct answer.
compound	unit.label	value.reported
CC(=O)O[C@H]1C(=O)[C@@]2(C)[C@H]([C@H](OC(=O)c3ccccc3)[C@]3(O)C[C@H](OC(=O)[C@H](O)[C@@H](NC(=O)c4ccccc4)c4ccccc4)C(C)=C1C3(C)C)[C@]1(OC(C)=O)CO[C@@H]1C[C@@H]2O [paclitaxel, reference compound]	µg/mL	2.12
COc1cc(/C=C/C(=O)NCc2ccccc2)cc(OC)c1OC [Compound 15]	µg/mL	33.1

Now take the following compound into account.
Q. May I ask what IC50 has been recorded for CCCCNC(=O)/C=C/c1cc(OC)c(OC)c(OC)c1 [Compound 14] ?
A. 13.2

----------
tested on: U87MG cells; assay: MTT cell viability assay, cytotoxic activity against proliferation of U87MG cells; format: cell-based, human; details: Homo sapiens, U-87 MG, MTT assay, 48 h exposure, 0.78-50 μg/mL, mean ± SEM of four experiments
value.kind: IC50 (µg/mL)
Give bare numbers, in µg/mL.

molecule	IC50 [µg/mL]
COc1cc(/C=C/C(=O)NCc2ccc(Cl)cc2)cc(OC)c1OC [Compound 18]	43.4
COc1ccc(CNC(=O)/C=C/c2cc(OC)c(OC)c(OC)c2)cc1 [Compound 17]	22.7
COC(=O)/C=C/c1cc(OC)c(OC)c(OC)c1 [Compound 2]	85.1
COc1cc(/C=C/C(=O)Oc2cc(C(C)C)ccc2C)cc(OC)c1OC [Compound 11]	26.7

Now take the following molecule into account.
Q. May I ask what IC50 has been recorded for CCCOC(=O)/C=C/c1cc(OC)c(OC)c(OC)c1 [Compound 4] ?
A. 78.4
